Every entry's value here was drawn from IntAct's records for PubMed 12718882.

B1: Splicing factor U2AF 65 kDa subunit (Homo sapiens), P26368 (parent)
chain: MSDFDEFERQLNENKQERDKENRHRKRSHSRSRSRDRKRRSRSRDRRNRDQRSASRDRRRRSKPLTRGAKEEHGGLIRSPRHEKKKKVRKYWDVPPPGFEHITPMQYKAMQAAGQIPATALLPTMTPDGLAVTPTPVPVVGSQMTRQARRLYVGNIPFGITEEAMMDFFNAQMRLGGLTQAPGNPVLAVQINQDKNFAFLEFRSVDETTQAMAFDGIIFQGQSLKIRRPHDYQPLPGMSENPSVYVPGVVSTVVPDSAHKLFIGGLPNYLNDDQVKELLTSFGPLKAFNLVKDSATGLSKGYAFCEYVDINVTDQAIAGLNGMQLGDKKLLVQRASVGAKNATLVSPPSTINQTPVTLQVPGLMSSQVQMGGHPTEVLCLMNMVLPEELLDDEEYEEIVEDVRDECSKYGLVKSIEIPRPVDGVEVPGCGKIFVEFTSVFDCQKAMQGLTGRKFANRVVVTKYCDPDSYHRRDFW
partner: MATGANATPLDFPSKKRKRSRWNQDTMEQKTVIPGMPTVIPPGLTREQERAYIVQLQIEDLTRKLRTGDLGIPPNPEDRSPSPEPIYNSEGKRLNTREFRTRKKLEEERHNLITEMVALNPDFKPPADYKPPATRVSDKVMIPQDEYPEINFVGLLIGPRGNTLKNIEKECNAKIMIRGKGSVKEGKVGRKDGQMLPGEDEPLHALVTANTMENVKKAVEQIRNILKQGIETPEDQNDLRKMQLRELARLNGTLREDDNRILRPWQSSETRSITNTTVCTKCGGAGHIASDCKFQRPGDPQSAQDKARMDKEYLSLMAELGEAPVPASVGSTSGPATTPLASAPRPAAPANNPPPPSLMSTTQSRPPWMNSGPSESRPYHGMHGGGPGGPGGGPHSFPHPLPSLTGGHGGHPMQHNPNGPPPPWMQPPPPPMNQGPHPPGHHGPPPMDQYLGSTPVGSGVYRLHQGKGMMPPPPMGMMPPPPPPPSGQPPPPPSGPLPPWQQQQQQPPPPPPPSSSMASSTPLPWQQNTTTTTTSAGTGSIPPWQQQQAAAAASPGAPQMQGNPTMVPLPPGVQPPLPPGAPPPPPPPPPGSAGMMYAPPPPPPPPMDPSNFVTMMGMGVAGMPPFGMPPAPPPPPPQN

- Variants of: B1
- condition_context: with sf01_human SF1, Q15637
property: effect of a mutation on the interaction

F454A ... decreasing interaction
F454Y ... decreasing interaction
E396A;E397A ... with no effect
E396K;E397K ... disrupting interaction
D391R;D392R;E393K;E394K ... disrupting interaction
E387G;E388A ... with no effect
E387R;E388R ... disrupting interaction
D391A;D392A;E393A;E394A ... decreasing interaction
E396G;E397A ... disrupting interaction
